Each item that follows carries a reported lowest phenotypically active concentration.
# Tested on: HepG2-TP53BP1-CLTA
# assay: lowest phenotypically active concentration; higher = less potent
# condition.set: treatment time: 24 h
I only need the number, in µM, no unit after it.

Below, 2 molecules whose answers are already recorded.
O=S(=O)(c1cccc2cnccc12)N1CCCNCC1 : 3
Cc1ccc(/C(=C/CN2CCCC2)c2cccc(/C=C/C(=O)O)n2)cc1 : 9

# assay system HepG2-TP53BP1-CLTA: give lowest phenotypically active concentration of COc1ccc(Cl)cc1NC(=O)Nc1cc(C)nc2ccccc12 3

# assay system HepG2-TP53BP1-CLTA: give lowest phenotypically active concentration of CN1CCC(CN2c3ccccc3Sc3ccccc32)C1 (stereo not drawn) 9

# assay system HepG2-TP53BP1-CLTA: give lowest phenotypically active concentration of COc1cc(N2CCN(C)CC2)ccc1Nc1nccc(-c2cn(C)c3cnccc23)n1 1

====

# System: WPMY1-TP53BP1-CLTA
# assay: phenotypically active (imaging signature differs from DMSO and reproducible) at any of 0.3-9 uM (binary (1 = active, 0 = inactive)); higher = active
# condition.set: treatment time: 24 h
Each item that follows carries a reported phenotypically active.
Simply state the number, no unit and no words.

CC(=O)OCC(=O)[C@@]12OC3(CCCC3)O[C@@H]1C[C@H]1[C@@H]3CCC4=CC(=O)C=C[C@]4(C)[C@@]3(F)[C@@H](O)C[C@@]12C [amcinonide] : 0
CC(=O)Nc1nnc(S(N)(=O)=O)s1 [acetazolamide] : 0
COc1ccc(C(=O)Nc2sc3c(c2C(N)=O)CCCC3)cc1OC : 0

Lab note: next compound to report on.
Write down phenotypically active measured for item COC1=C(O)C(=O)c2ccccc2C1=O [2-hydroxy-3-methoxy-naphtoquinone] 0

====

Each item that follows carries a reported lowest phenotypically active concentration.
# Test system: A549-CANX-COX4
# assay: lowest phenotypically active concentration; higher = less potent
# condition.set: treatment time: 24 h
Counter-ions that a name gives are not always drawn.
I only need the number, in µM, no unit after it.

COc1ccc(S(=O)(=O)Nc2cccnc2Nc2ccc(O)cc2)cc1 : 1

# assay system A549-CANX-COX4: give lowest phenotypically active concentration of C[C@@H](Nc1ncnc2[nH]c(-c3ccc(O)cc3)cc12)c1ccccc1 [PKI 166 hydrochloride] 3

# assay system A549-CANX-COX4: give lowest phenotypically active concentration of CC(C)n1c(/C=C/[C@@H](O)C[C@@H](O)CC(=O)O)c(-c2ccc(F)cc2)c2ccccc21 [fluvastatin] 9

# assay system A549-CANX-COX4: give lowest phenotypically active concentration of COc1cc2nc(N3CCN(C(=O)C4COc5ccccc5O4)CC3)nc(N)c2cc1OC (centres undefined) [doxazosin] 9

# assay system A549-CANX-COX4: give lowest phenotypically active concentration of CN(C)CC(=O)N1CCC[C@@H](n2nc(-c3ccc(Oc4ccccc4)cc3)c3c(N)ncnc32)C1 9

# assay system A549-CANX-COX4: give lowest phenotypically active concentration of CN1CCCC(n2nc(Cc3ccc(Cl)cc3)c3ccccc3c2=O)CC1 (centres undefined) [azelastine] 9

# assay system A549-CANX-COX4: give lowest phenotypically active concentration of Cc1nc(NC(=O)N2CCC[C@H]2C(N)=O)sc1-c1ccnc(C(C)(C)C(F)(F)F)c1 [alpelisib] 3

====

# System: A549-GM130-SQSTM1
# assay: phenotypically active (imaging signature differs from DMSO and reproducible) at any of 0.3-9 uM (binary (1 = active, 0 = inactive)); higher = active
# condition.set: treatment time: 24 h
Counter-ions that a name gives are not always drawn.
Hi! Could you answer with just one of these? active, inactive

Before answering, review these 5 worked examples.
c1ccc(CN(CC2=NCCN2)c2ccccc2)cc1 : active
C[C@H]1[C@H](C)CC[C@]2(C(=O)O)CC[C@]3(C)C(=CC[C@@H]4[C@@]5(C)CC[C@H](O)C(C)(C)[C@@H]5CC[C@]43C)[C@H]12 : inactive
CC(=C/[C@@H](C)C(=O)c1ccc(N(C)C)cc1)/C=C/C(=O)NO : active
CC(C)c1cc(-c2n[nH]c(=O)n2-c2ccc3c(ccn3C)c2)c(O)cc1O : active
COCc1nc2c([nH]1)c(=O)n(C)c(=O)n2CC(C)C : inactive

Please let me know the test result on file for COc1ccc(-c2ccc3ncc4c(c3c2)n(-c2ccc(N3CCNCC3)c(C(F)(F)F)c2)c(=O)n4C)cn1 . active

Please let me know the test result on file for Cc1c[nH]c2ncnc(-c3ccc(NC(=O)N(CCO)c4ccccc4)cc3)c12 . inactive

Please let me know the test result on file for C[C@]12CC[C@@H]3c4ccc(O)cc4CC[C@H]3[C@@H]1CC[C@@H]2O . inactive

Please let me know the test result on file for NC(=O)Nc1sc(-c2ccc(F)cc2)cc1C(N)=O . active

Please let me know the test result on file for CCc1ccc(/C=C/C(=O)Nc2ccc(C(C)=O)cc2)o1 . active

Please let me know the test result on file for CCNC(=O)c1noc(-c2cc(C(C)C)c(O)cc2O)c1-c1ccc(CN2CCOCC2)cc1 . active

Please let me know the test result on file for COc1ccc2c3c([nH]c2c1)[C@H]1C[C@H]2[C@H](C[C@@H](O)[C@H](OC)[C@H]2C(=O)O)CN1CC3 [Reserpinic acid hydrochloride] . inactive

Please let me know the test result on file for COc1cc2c(cc1OC)CC(=O)N(CCCN(C)C[C@H]1Cc3cc(OC)c(OC)cc31)CC2 . inactive

Please let me know the test result on file for O=C(CCCCCCC(=O)Nc1ccc([C@H]2O[C@@H](CSc3nc(-c4ccccc4)c(-c4ccccc4)o3)C[C@@H](c3ccc(CO)cc3)O2)cc1)NO . active

Please let me know the test result on file for Cc1ccc(Cl)c(Nc2ccccc2C(=O)O)c1Cl . inactive

Please let me know the test result on file for CC[C@]1(O)C[C@@H]2CN(CCc3c([nH]c4ccccc34)[C@@](C(=O)OC)(c3cc4c(cc3OC)N(C=O)[C@H]3[C@@](O)(C(=O)OC)[C@H](OC(C)=O)[C@]5(CC)C=CCN6CC[C@]43[C@@H]65)C2)C1 . active

====

# Tested on: HepG2-CANX-COX4
# assay: phenotypically active (imaging signature differs from DMSO and reproducible) at any of 0.3-9 uM (binary (1 = active, 0 = inactive)); higher = active
# condition.set: treatment time: 24 h
Hi! Could you answer with just one of these? active, inactive

COc1cc2c(N3CCN(C(=O)Nc4ccc(OC(C)C)cc4)CC3)ncnc2cc1OCCCN1CCCCC1 [tandutinib] : active
Cc1ccnn1-c1ccc(C(=O)N2CCN(S(=O)(=O)c3ccc(Cl)c(C(F)(F)F)c3)CC2)cc1 : inactive
COc1cc(C(=O)N2CCC(N3CCN(C)CC3)CC2)ccc1Nc1ncc2c(n1)N(C)c1ccccc1C(=O)N2C : active

Attention now turns to another entry.
Please let me know the test result on file for CCCCOc1cc(C(=O)NCCN(CC)CC)c2ccccc2n1 [cinchocaine] . inactive

====

Each item that follows carries a reported lowest phenotypically active concentration.
# System: A549-TUBA1B-RELA
# assay: lowest phenotypically active concentration; higher = less potent
# condition.set: treatment time: 24 h
I only need the number, in µM, no unit after it.

Below, 2 compounds whose answers are already recorded.
C[C@H]1[C@H]2CC[C@H]3[C@@H]4CC=C5C[C@@H](N(C)C)CC[C@]5(C)[C@H]4CC[C@]23CN1C : 1
O=c1c(-c2ccc(O)cc2)coc2cc(O[C@@H]3O[C@H](CO)[C@@H](O)[C@H](O)[C@H]3O)cc(O)c12 : 9

Lab note: next compound to report on.
Write down lowest phenotypically active concentration measured for item Nc1cc(N)c(N)cc1N 3

====

# System: A549-TP53BP1-CLTA
# assay: phenotypically active (imaging signature differs from DMSO and reproducible) at any of 0.3-9 uM (binary (1 = active, 0 = inactive)); higher = active
# condition.set: treatment time: 24 h
Structures can show the parent of a compound that is named as a salt.
Hi! Could you answer with just one of these? active, inactive

Cn1cc(-c2ccc3nnc(Sc4ccc5ncccc5c4)n3n2)cn1 : active
N=C(N)NC(=O)Cc1c(Cl)cccc1Cl [guanfacine] : inactive
O=C(O)C[C@H](O)C[C@H](O)/C=C/c1c(C2CC2)nc2ccccc2c1-c1ccc(F)cc1 [Pitavastatin calcium] : active
CN(C)CCc1c[nH]c2ccc(Cn3cncn3)cc12 [rizatriptan] : inactive

Please let me know the test result on file for C[C@]12CC[C@@H]3c4ccc(O)cc4CC[C@H]3[C@@H]1CC[C@@H]2O [estradiol] . inactive

Please let me know the test result on file for CC(C)(C)Nc1nc(Nc2ccc(C(N)=O)cc2)cc(N)c1C#N . active

Please let me know the test result on file for O=C(O)Cc1cccc(OCCCN(Cc2cccc(C(F)(F)F)c2Cl)CC(c2ccccc2)c2ccccc2)c1 [GW 3965 hydrochloride] . inactive

Please let me know the test result on file for O=C(O)c1cccc(C(=O)O)n1 [2,6-Pyridinedicarboxylic Acid] . inactive

Please let me know the test result on file for CO[C@H]1C[C@@H]2CC[C@@H](C)[C@@](O)(O2)C(=O)C(=O)N2CCCC[C@H]2C(=O)O[C@H]([C@H](C)C[C@@H]2CC[C@@H](OC(=O)C(C)(CO)CO)[C@H](OC)C2)CC(=O)[C@H](C)C=C(C)[C@@H](O)[C@@H](OC)C(=O)[C@H](C)C[C@H](C)C=CC=CC=C1C [Temsirolimus] . active
